# ASSAY_NOTES: Fraction unbound in human plasma
# Type: ADME, cell-free
TEST_READOUT: fraction unbound

Task: Data request, read-out fraction unbound, for `O=C(Nc1ccc(Cl)c(Cl)c1)N1CCN(C[C@@H]2CCCN(C3CC3)C2)CC1`
Output: 0.05

---

# EXPERIMENTAL_TARGET: C-C chemokine receptor type 2 (Homo sapiens)
# Sequence (P41597 whole entry): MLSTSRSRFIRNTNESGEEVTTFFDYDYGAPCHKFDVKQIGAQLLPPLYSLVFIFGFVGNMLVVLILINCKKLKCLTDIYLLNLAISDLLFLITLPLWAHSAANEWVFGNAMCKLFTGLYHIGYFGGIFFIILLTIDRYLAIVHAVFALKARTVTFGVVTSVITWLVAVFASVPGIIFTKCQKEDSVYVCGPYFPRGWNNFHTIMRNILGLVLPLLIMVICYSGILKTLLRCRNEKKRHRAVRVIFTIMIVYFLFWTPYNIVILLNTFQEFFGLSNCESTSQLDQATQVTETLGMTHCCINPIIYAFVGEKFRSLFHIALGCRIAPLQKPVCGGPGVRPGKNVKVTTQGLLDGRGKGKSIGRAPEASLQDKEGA
# ASSAY_NOTES: Displacement of 125I-MCP1 from human CCR2 receptor expressed in human THP-1 cell membrane by SPA assay
# Assay type: cell membranes
Please use the following IC50 ranges when assigning a class: band A = under 60 nM, band B = from 60 nM up to 200 nM, band C = 200 nM and over

# MOLECULE, CATEGORY_LABEL
rows = [
    ("O=C(Nc1ccc(C(F)(F)F)cc1)N1CCN(C[C@@H]2CCCN(C3CC3)C2)CC1", "band B"),
    ("O=C(Nc1ccc(Cl)c(Cl)c1)N1CCN(CC2CCCNC2)CC1 (racemic)", "band C"),
    ("O=C(Nc1ccc(Cl)c(Cl)c1)N1CCN(C[C@@H]2CCCN(CCCc3ccccc3)C2)CC1", "band B"),
]

Task: Please report the category associated with `O=C(Nc1ccc(Cl)cc1)N1CCN(C[C@@H]2CCCN(C3CC3)C2)CC1` , nothing else.
Output: band B

Task: Continue with `O=C(Nc1cccc(C(F)(F)F)c1)N1CCN(C[C@@H]2CCCN(C3CC3)C2)CC1`
Output: band B

Task: # iterate: `CC(C)N1CCN[C@@H](C(=O)N2CCN(C(=O)Nc3ccc(Cl)c(Cl)c3)CC2)C1`
Output: band A

Task: How about this molecule: `O=C(Nc1ccccc1)N1CCN(C[C@@H]2CCCN(C3CC3)C2)CC1`
Output: band C

---

# ASSAY_NOTES: Volume of distribution in rat
# Type: ADME, organism-based
# PARTICULARS: in vivo
TEST_READOUT: Vd (L/kg)
Numbers only, in L/kg.

Task: Looking for the measured Vd of `O=C(Nc1ccc(Cl)c(Cl)c1)N1CCN(C[C@@H]2CCCN(C3CC3)C2)CC1` , can you help?
Output: 8

---

# ASSAY_NOTES: Intrinsic clearance in dog hepatocytes assessed per 10^6 cells
# Type: ADME, cell-based, Canis lupus familiaris, Hepatocyte
# PARTICULARS: read-out: CLH
TEST_READOUT: hepatocyte CLint

Task: Requested read-out: hepatocyte CLint. Entry: `CC(C)N1CCN[C@@H](C(=O)N2CCN(C(=O)Nc3ccc(Cl)c(Cl)c3)CC2)C1`
Output: < 2 µL/min/1e6 cells

---

# ASSAY_NOTES: Volume of distribution at steady state in rat at 4 umol/kg, iv
# Assay type: ADME, organism-based
# PARTICULARS: in vivo, read-out: Vdss
TEST_READOUT: Vd (L/kg)
Answers are plain numbers, in L/kg.

Task: Returns the measured Vd for the input compound. Input: `CC(C)N1CCN[C@@H](C(=O)N2CCN(C(=O)Nc3ccc(Cl)c(Cl)c3)CC2)C1`
Output: 4

---

# EXPERIMENTAL_TARGET: UniProtKB P41597
# ASSAY_NOTES: Displacement of 125I-MCP1 from human CCR2 receptor expressed in human THP-1 cell membrane by SPA assay
# Type: cell membranes
Entries whose IC50 is below 400 nM take Yes; entries at or above 400 nM take No.

Please review the entries below; each comes with its answer.
# MOLECULE, CATEGORY_LABEL
rows = [
    ("CC(C)N1CCC[C@@H](CN2CCN(C(=O)Nc3ccc(Cl)c(Cl)c3)CC2)C1", "Yes"),
    ("N#Cc1ccc(NC(=O)N2CCN(C[C@@H]3CCCN(C4CC4)C3)CC2)cc1", "No"),
    ("CCN1CCC[C@@H](C(=O)N2CCN(C(=O)Nc3ccc(Cl)c(Cl)c3)CC2)C1", "No"),
    ("CCN1CCN[C@@H](C(=O)N2CCN(C(=O)Nc3ccc(Cl)c(Cl)c3)CC2)C1", "Yes"),
    ("COc1ccc(NC(=O)N2CCN(C[C@@H]3CCCN(C4CC4)C3)CC2)cc1", "No"),
    ("CN1CCN[C@@H](C(=O)N2CCN(C(=O)Nc3ccc(Cl)c(Cl)c3)CC2)C1", "Yes"),
    ("CN1CCN(C)C(C(=O)N2CCN(C(=O)Nc3ccc(Cl)c(Cl)c3)CC2)C1 (racemic)", "No"),
    ("O=C(Nc1ccc(Br)cc1)N1CCN(C[C@@H]2CCCN(C3CC3)C2)CC1", "Yes"),
]

Next, consider the following molecule.
Task: Field: below-cutoff. Rule: recorded IC50 strictly less than 400 nM. Subject: `O=C(Nc1ccc(F)c(Cl)c1)N1CCN(C[C@@H]2CCCN(C3CC3)C2)CC1`
Output: Yes

Numbers sourced from ChEMBL document CHEMBL2034889.
